- TARGET_UNDER_TEST: PKR K410E (Homo sapiens, UniProt P30613, K410E)
- Sequence (P30613 whole entry K410E): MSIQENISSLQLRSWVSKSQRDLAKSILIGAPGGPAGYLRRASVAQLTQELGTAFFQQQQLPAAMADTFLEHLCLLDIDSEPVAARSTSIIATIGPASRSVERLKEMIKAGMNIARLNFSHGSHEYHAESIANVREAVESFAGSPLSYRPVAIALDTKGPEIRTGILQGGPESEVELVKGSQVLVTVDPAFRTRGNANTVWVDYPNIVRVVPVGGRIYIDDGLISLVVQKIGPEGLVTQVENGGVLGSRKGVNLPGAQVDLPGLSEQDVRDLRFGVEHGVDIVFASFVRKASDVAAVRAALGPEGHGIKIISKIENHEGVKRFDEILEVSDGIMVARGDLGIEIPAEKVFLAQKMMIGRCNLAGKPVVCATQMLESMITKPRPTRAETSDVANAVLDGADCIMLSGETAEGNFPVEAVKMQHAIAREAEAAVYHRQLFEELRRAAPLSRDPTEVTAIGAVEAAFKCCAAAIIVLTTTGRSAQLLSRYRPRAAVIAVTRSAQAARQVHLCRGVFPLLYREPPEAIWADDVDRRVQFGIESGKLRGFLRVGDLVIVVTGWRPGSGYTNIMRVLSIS
- PROTOCOL_TEXT: PKR mutant assay (K410E), AC50, LDH/NADH-coupled, absorbance at 340 nm
- CONDITION: Table 4; AC50, enzyme assay
READOUT: EC50

"Cn1c2nc(Cc3cc[nH]n3)sc2c2cnn(Cc3ccc4c(n3)NC(=O)C4)c(=O)c21" on PKR K410E (Homo sapiens, UniProt P30613, K410E) gives EC50 = < 300 nM

"CN(c1csc(Cc2cnc(=O)[nH]c2)n1)c1ccnn(Cc2cccc3[nH]ncc23)c1=O" on PKR K410E (Homo sapiens, UniProt P30613, K410E) gives EC50 = > 800 nM

"O=c1c2c(cnn1Cc1ccccc1)c1sc(Cc3cc[nH]n3)nc1n2Cc1ccccc1" on PKR K410E (Homo sapiens, UniProt P30613, K410E) gives EC50 = > 800 nM

CC(c1cc[nH]n1)c1nc2c(s1)c1cnn(Cc3cccc4[nH]ncc34)c(=O)c1n2C (centres unmarked) on PKR K410E (Homo sapiens, UniProt P30613, K410E) gives EC50 = < 300 nM

"CCn1c2nc(Cc3cc[nH]n3)sc2c2cnn(Cc3ccccc3)c(=O)c21" on PKR K410E (Homo sapiens, UniProt P30613, K410E) gives EC50 = > 800 nM

"Cn1c2nc(Cc3cn[nH]n3)sc2c2cnn(Cc3cccc(OC(F)(F)F)c3F)c(=O)c21" on PKR K410E (Homo sapiens, UniProt P30613, K410E) gives EC50 = 301 to 800 nM

"Cn1c2nc(Cc3ccc[nH]c3=O)sc2c2cnn(Cc3cccc4[nH]ncc34)c(=O)c21" on PKR K410E (Homo sapiens, UniProt P30613, K410E) gives EC50 = < 300 nM

"COc1ncc(Cc2nc3c(s2)c2cnn(Cc4cccc5[nH]ncc45)c(=O)c2n3C)cn1" on PKR K410E (Homo sapiens, UniProt P30613, K410E) gives EC50 = 301 to 800 nM

"Cn1c2nc(Cc3cc[nH]n3)sc2c2cnn(Cc3ccc4c(F)c[nH]c4n3)c(=O)c21" on PKR K410E (Homo sapiens, UniProt P30613, K410E) gives EC50 = < 300 nM

"Cn1c2nc(Cc3nnco3)sc2c2cnn(Cc3cccc4[nH]ncc34)c(=O)c21" on PKR K410E (Homo sapiens, UniProt P30613, K410E) gives EC50 = < 300 nM

"Cn1c2nc(Cc3cnco3)sc2c2cnn(Cc3cccc4[nH]ncc34)c(=O)c21" on PKR K410E (Homo sapiens, UniProt P30613, K410E) gives EC50 = > 800 nM

* * *

- TARGET_UNDER_TEST: wild type PKR (Homo sapiens)
- Sequence (P30613 whole entry): as the sequence (P30613 whole entry K410E) above, with E410K counted along it
- PROTOCOL_TEXT: PKR (wild type) enzyme AC50 assay, LDH/NADH-coupled, absorbance at 340 nm
- Assay type: biochemical
- CONDITION: Table 4; AC50, enzyme assay; read-out: PKR WT
- Description: Example 11. PKR Mutant Assay PKR or PKR mutant enzyme solution was diluted into a reaction mix, which contains 1× buffer (100 mM KCl, 50 mM Tris pH 7.5, 5 mM MgCl2) as well as PEP (conc depends on enzyme), 180 μM NADH, 0.5 units LDH, 1 mM DTT, 0.03% BSA; final assay concentrations after 1.11 fold dilution are indicated. […] 20 uL ADP was added to start reaction at room temperature and reaction progress was measured as changes in absorbance at 340 nm wavelength at room temperature. […]
pEC50: −log10 of the molar value.
READOUT: pEC50

Entry under test: "Cn1cc(Cc2nc3c(s2)c2cnn(Cc4cccc5[nH]ncc45)c(=O)c2n3C)cn1" . Its pEC50 was < 6.10

Entry under test: "Cn1c2nc(Cc3cc[nH]n3)sc2c2cnn(Cc3n[nH]c4cccnc34)c(=O)c21" . Its pEC50 was > 6.52

Entry under test: "Cn1c2nc(Cc3c[nH]nn3)sc2c2cnn(Cc3ccccc3)c(=O)c21" . Its pEC50 was < 6.10

Entry under test: "Cn1c2nc(Cc3cscn3)sc2c2cnn(Cc3ccccc3)c(=O)c21" . Its pEC50 was > 6.52

Entry under test: "Cn1c2nc(Cc3cc[nH]n3)sc2c2cnn(Cc3ccc(O)c(N)c3)c(=O)c21" . Its pEC50 was > 6.52

Entry under test: "Cn1c2nc(Cn3cnnc3)sc2c2cnn(Cc3cccc4[nH]ncc34)c(=O)c21" . Its pEC50 was < 6.10

Entry under test: "Cn1c2nc(Cc3n[nH]cc3F)sc2c2cnn(Cc3cccc4[nH]ncc34)c(=O)c21" . Its pEC50 was > 6.52

Entry under test: "Cn1c2nc(Cc3cccc4[nH]nnc34)sc2c2cnn(Cc3cccc4[nH]ncc34)c(=O)c21" . Its pEC50 was > 6.52

Entry under test: "Cn1c2nc(Cc3cnco3)sc2c2cnn(Cc3cccc4[nH]ncc34)c(=O)c21" . Its pEC50 was 6.10 to 6.52

Entry under test: "Cn1c2nc(Cc3cc[nH]n3)sc2c2cnn(Cc3cccc4c3NS(=O)(=O)N4)c(=O)c21" . Its pEC50 was < 6.10

Entry under test: "Cn1c2nc(Cc3c[nH]nn3)sc2c2cnn(Cc3ccc(OC(F)(F)F)cc3)c(=O)c21" . Its pEC50 was > 6.52

Entry under test: "Cn1c2nc(Cc3cscn3)sc2c2cnn(Cc3cccc4[nH]ncc34)c(=O)c21" . Its pEC50 was > 6.52

Entry under test: "Cn1c2nc(Cc3ccc[nH]c3=O)sc2c2cnn(Cc3cccc4[nH]ncc34)c(=O)c21" . Its pEC50 was > 6.52

Entry under test: "Cn1c2nc([C@@H](O)c3cc[nH]n3)sc2c2cnn(Cc3cccc4[nH]ncc34)c(=O)c21" . Its pEC50 was > 6.52

Entry under test: "Cn1c2nc(Cc3cc[nH]n3)sc2c2cnn(Cc3cccc4[nH]cnc34)c(=O)c21" . Its pEC50 was > 6.52

Entry under test: CC(=O)c1cccc(CC(c2cc[nH]n2)c2nc3c(s2)c2cnn(Cc4cccc(C(C)=O)c4)c(=O)c2n3C)c1 (stereo not shown) . Its pEC50 was < 6.10
